- Test system: A498 renal
- TEST METHOD NOTES: NCI tumour cell line growth inhibition, 48 h
Each entry below carries its reported TGI.

# example entries with known answers
{"columns": ["COMPOUND", "TGI"],
 "data": [
  ["O=C(CSCC(=O)N/N=C/c1ccc(F)cc1)N/N=C/c1ccc(F)cc1", "> 100 µM"],
  ["O=C1CCCc2ccc3c(c21)CC1(Cc2cc4c(cc2C1)CCCC4)C3", "> 100 µM"],
  ["COc1ccc(OC)c(-c2cc(-c3ccc(Cl)cc3)nn2-c2ccc(S(N)(=O)=O)cc2)c1", "29.7 µM"],
  ["CS(=O)(=O)c1ccc(C2=C(c3ccccc3)C(=O)OC2)cc1", "> 100 µM"],
  ["COc1cc2c(cc1OC)[C@@H]1[C@H](C2=O)c2ccc([N+](=O)[O-])cc2C(=O)N1CCCBr", "2.14 µM"]
]}

Prompt: Given the entry COc1cc(C2C3=C(COC3=O)N(CCO)c3cc4c(cc32)OCCO4)cc(OC)c1O (stereo unspecified) , report its measured TGI.
Response: > 23.4 µM

Prompt: Given the entry COC1=C(NC(C)=O)C(=O)c2nc3n(c2C1=O)CCC3 , report its measured TGI.
Response: 50.2 µM
